EC50 values for the molecules below.
Molecular target: Sphingosine 1-phosphate receptor 4 (Homo sapiens)
Sequence (O95977 whole entry): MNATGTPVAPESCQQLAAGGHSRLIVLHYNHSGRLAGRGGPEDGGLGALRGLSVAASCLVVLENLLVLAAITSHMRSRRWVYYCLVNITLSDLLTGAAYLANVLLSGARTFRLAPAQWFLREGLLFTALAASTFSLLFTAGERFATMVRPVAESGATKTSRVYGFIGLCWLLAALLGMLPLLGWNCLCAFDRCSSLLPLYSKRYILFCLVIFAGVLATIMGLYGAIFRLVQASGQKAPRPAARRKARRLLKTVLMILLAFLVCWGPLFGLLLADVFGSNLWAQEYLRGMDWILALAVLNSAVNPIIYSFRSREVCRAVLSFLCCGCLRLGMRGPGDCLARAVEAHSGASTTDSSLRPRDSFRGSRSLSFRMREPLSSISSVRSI
Assay: Agonist activity at recombinant human S1PR4 expressed in CHO cell membranes assessed as [35S]GTP-gammaS binding measured after 1.5 hrs by TopCount scintillation counting method
Write the number in nM without appending the unit.

>  <molecular-string>
O=C(O)C1CN(Cc2cc3c(-c4ccc5ccccc5c4)cccc3s2)C1

>  <unit-descriptor>
nM

>  <EC50>
1010

$$$$

Proceed to the following item.
Incoming: Entry `O=C(O)CNCc1cc2c(-c3ccc4ccccc4c3)cccc2s1` has what EC50?
Outgoing: 640
